biological target: Tyrosine-protein kinase JAK3 (Homo sapiens, UniProt P52333); experiment: Inhibition of recombinant human N-terminal GST-tagged JAK3 (781 to end residues) expressed in baculovirus infected Sf9 insect cells using poly (Glu,Tyr)4:1 as substrate pretreated for 60 mins followed by substrate addition after 1 hr by ADP-Glo luminescence assay
Sequence (P52333 whole entry): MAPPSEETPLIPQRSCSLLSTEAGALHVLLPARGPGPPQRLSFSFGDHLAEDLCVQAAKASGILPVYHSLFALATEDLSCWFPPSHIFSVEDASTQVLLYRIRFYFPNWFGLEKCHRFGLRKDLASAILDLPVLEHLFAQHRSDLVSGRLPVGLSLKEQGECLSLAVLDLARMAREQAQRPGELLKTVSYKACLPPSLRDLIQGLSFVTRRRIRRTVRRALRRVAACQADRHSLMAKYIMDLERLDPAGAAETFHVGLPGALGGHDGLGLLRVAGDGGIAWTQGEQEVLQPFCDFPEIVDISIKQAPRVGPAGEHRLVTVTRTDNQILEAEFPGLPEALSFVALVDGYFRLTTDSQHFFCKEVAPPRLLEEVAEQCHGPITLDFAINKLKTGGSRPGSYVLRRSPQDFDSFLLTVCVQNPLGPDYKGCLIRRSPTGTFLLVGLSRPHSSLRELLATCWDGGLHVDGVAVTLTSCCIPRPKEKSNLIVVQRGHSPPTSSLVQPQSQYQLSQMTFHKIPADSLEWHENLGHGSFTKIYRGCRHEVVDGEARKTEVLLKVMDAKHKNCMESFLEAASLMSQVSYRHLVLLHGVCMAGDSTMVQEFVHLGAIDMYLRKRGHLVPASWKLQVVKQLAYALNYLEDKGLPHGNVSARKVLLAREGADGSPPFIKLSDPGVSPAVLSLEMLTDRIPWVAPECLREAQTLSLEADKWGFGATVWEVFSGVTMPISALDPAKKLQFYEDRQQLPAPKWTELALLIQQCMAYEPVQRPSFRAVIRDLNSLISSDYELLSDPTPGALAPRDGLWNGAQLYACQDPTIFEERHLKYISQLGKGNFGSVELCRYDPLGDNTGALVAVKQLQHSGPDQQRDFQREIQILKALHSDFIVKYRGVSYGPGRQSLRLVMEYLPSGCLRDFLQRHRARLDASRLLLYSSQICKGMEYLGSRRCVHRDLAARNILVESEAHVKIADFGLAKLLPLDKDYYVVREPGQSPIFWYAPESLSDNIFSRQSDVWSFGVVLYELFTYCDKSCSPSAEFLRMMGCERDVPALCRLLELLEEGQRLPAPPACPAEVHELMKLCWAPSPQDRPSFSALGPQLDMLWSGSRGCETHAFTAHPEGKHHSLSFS
The entries below come with measured pIC50 values attached.
Just the number, please; pIC50 means minus log10 of the concentration in mol/L.

line-notation	assay-target	test-value
C=CC(=O)Nc1cccc(Nc2nc(Nc3ccc(Oc4ccnc(C(=O)NC)c4)cc3)ncc2F)c1	Tyrosine-protein kinase JAK3 (Homo sapiens, UniProt P52333)	5.81

Could you now consider this next compound?
Param request: pIC50 | system Tyrosine-protein kinase JAK3 (Homo sapiens, UniProt P52333) | item C=CC(=O)Nc1cccc(Nc2nc(Nc3ccc(OCCOC)cc3)ncc2F)c1
5.76

---

assay: AUC (0 to infinity) in Sprague-Dawley rat at 1 mg/kg, iv by LC-MS/MS method; assay type: ADME, organism-based; design: dose 1 mg/kg, route intravenous, time infinity; conditions: in vivo
observable: AUC(0-inf) (ng·h/mL)
Number in ng·h/mL, nothing else.

line-notation	unit	AUC(0-inf)
C=CC(=O)Nc1cc(Nc2cc(-c3cccc(NC(=O)c4ccc(N(C)C)cc4)c3C)cn(C)c2=O)ccc1C(=O)N1CCOCC1	ng·h/mL	317

Item C=CC(=O)Nc1cc(Nc2cc(-c3cccc(NC(=O)c4ccc(C(C)(C)C)cc4)c3C)cn(C)c2=O)ccc1C(=O)N1CCOCC1 : provide AUC(0-inf)
183

Item C=CC(=O)Nc1cc(Nc2cc(-c3cccc(NC(=O)c4cc5c(s4)CCCC5)c3C)cn(C)c2=O)ccc1C(=O)N1CCOCC1 : provide AUC(0-inf)
1560

---

tested on: SKM-1; experiment: Growth inhibition of human SKM1 cells; format: functional; details: Homo sapiens, SKM-1
observable: GI50 (µM)
Number in µM, nothing else.

These recorded examples may help you get a feel for the data.
line-notation	assay-target	GI50, µM
C=CC(=O)Nc1cc(Nc2cc(-c3cccc(NC(=O)c4ccc(C(C)(C)C)cc4)c3C)cn(C)c2=O)ccc1C(=O)N1CCOCC1	SKM-1	7.1
C=CC(=O)Nc1cc(Nc2cc(-c3cccc(NC(=O)c4ccc(N(C)C)cc4)c3C)cn(C)c2=O)ccc1C(=O)N1CCOCC1	SKM-1	1

Could you now consider this next compound?
Item C=CC(=O)Nc1cc(Nc2cc(-c3cccc(NC(=O)c4cc5c(s4)CCCC5)c3C)cn(C)c2=O)ccc1C(=O)N1CCOCC1 : provide GI50
2.8

---

The entries below come with measured Cmax values attached.
experiment: Cmax in Sprague-Dawley rat at 1 mg/kg, iv by LC-MS/MS method; assay type: ADME, organism-based; parameters: dose 1 mg/kg, route intravenous; settings: in vivo
Number in ng/mL, nothing else.

line-notation	unit	Cmax
C=CC(=O)Nc1cc(Nc2cc(-c3cccc(NC(=O)c4ccc(C(C)(C)C)cc4)c3C)cn(C)c2=O)ccc1C(=O)N1CCOCC1	ng/mL	897

Item C=CC(=O)Nc1cc(Nc2cc(-c3cccc(NC(=O)c4cc5c(s4)CCCC5)c3C)cn(C)c2=O)ccc1C(=O)N1CCOCC1 : provide Cmax
7620

Item C=CC(=O)Nc1cc(Nc2cc(-c3cccc(NC(=O)c4ccc(N(C)C)cc4)c3C)cn(C)c2=O)ccc1C(=O)N1CCOCC1 : provide Cmax
2440

---

The entries below come with measured pIC50 values attached.
target: Tyrosine-protein kinase BTK (Homo sapiens, UniProt Q06187); assay: Inhibition of full length recombinant human N-terminal His tagged […] expressed in baculovirus infected Sf9 insect cells using poly (Glu,Tyr)4:1 as substrate pretreated for 60 mins followed by substrate addition after 1 hr by ADP-Glo luminescence assay
Sequence (Q06187 whole entry): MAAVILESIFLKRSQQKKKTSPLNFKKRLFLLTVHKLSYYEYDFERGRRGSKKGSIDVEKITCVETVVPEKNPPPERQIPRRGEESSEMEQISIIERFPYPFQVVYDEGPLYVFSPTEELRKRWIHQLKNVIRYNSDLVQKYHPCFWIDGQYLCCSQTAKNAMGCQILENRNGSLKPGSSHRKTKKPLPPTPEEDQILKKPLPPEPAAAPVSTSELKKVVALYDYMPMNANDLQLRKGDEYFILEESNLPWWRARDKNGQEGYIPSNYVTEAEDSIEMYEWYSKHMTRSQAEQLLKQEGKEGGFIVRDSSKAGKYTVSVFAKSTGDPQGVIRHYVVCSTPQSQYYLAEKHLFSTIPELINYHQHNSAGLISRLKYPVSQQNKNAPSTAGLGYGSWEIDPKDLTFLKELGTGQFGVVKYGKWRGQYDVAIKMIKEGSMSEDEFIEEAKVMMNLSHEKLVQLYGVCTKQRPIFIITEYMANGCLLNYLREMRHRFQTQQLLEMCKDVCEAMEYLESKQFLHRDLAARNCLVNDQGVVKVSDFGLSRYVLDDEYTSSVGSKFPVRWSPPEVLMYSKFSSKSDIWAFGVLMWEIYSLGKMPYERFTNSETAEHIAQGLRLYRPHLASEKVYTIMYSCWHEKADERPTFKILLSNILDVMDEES
Just the number, please; pIC50 means minus log10 of the concentration in mol/L.

These recorded examples may help you get a feel for the data.
compound	assay-target	pIC50
C=CC(=O)Nc1cc(Nc2cc(-c3cccc(NC(=O)c4ccc(N(C)C)cc4)c3C)cn(C)c2=O)ccc1C(=O)N1CCC(OC)CC1	Tyrosine-protein kinase BTK (Homo sapiens, UniProt Q06187)	6.22
C=CC(=O)Nc1cc(Nc2cc(-c3cccc(NC(=O)c4ccc(C)c(C(F)(F)F)c4)c3C)cn(C)c2=O)ccc1C(=O)N1CCOCC1	Tyrosine-protein kinase BTK (Homo sapiens, UniProt Q06187)	5.90
C=CC(=O)Nc1cc(Nc2cc(-c3cccc(NC(=O)c4ccc(N(C)C)cc4)c3C)cn(C)c2=O)ccc1C(=O)N1CCCC(O)C1 (centres undefined)	Tyrosine-protein kinase BTK (Homo sapiens, UniProt Q06187)	6.61
C=CC(=O)Nc1cc(Nc2cc(-c3cccc(NC(=O)c4ccc(C(C)(C)C)cc4)c3C)cn(C)c2=O)ccc1C(=O)N1CCN(C)CC1	Tyrosine-protein kinase BTK (Homo sapiens, UniProt Q06187)	6.90
C=CC(=O)Nc1cc(Nc2cc(-c3cccc(NC(=O)c4ccc(C(C)(C)C)cc4)c3C)cn(C)c2=O)ccc1C(=O)N1CCC(OC)CC1	Tyrosine-protein kinase BTK (Homo sapiens, UniProt Q06187)	7.19
C=CC(=O)Nc1cc(Nc2cc(-c3cccc(NC(=O)c4ccc(C(C)(C)C)cc4)c3C)cn(C)c2=O)ccc1C(=O)N1CCCC(O)C1 (centres undefined)	Tyrosine-protein kinase BTK (Homo sapiens, UniProt Q06187)	7.68
Cc1c(NC(=O)c2ccc(C(C)(C)C)cc2)cccc1-c1cc(Nc2ccc(C(=O)N3CCOCC3)c(NC(=O)CCl)c2)c(=O)n(C)c1	Tyrosine-protein kinase BTK (Homo sapiens, UniProt Q06187)	7.20
C=CC(=O)Nc1cc(Nc2cc(-c3cccc(NC(=O)c4ccc(N5CCCC5)cc4)c3C)cn(C)c2=O)ccc1C(=O)N1CCOCC1	Tyrosine-protein kinase BTK (Homo sapiens, UniProt Q06187)	7.07
C=CC(=O)Nc1cc(Nc2cc(-c3cccc(NC(=O)c4ccc5c(c4)OCCO5)c3C)cn(C)c2=O)ccc1C(=O)N1CCOCC1	Tyrosine-protein kinase BTK (Homo sapiens, UniProt Q06187)	7.05
C=CC(=O)Nc1cc(Nc2cc(-c3cccc(NC(=O)c4ccc(C(C)(C)C)cc4)c3C)cn(C)c2=O)ccc1C(=O)N(C)C	Tyrosine-protein kinase BTK (Homo sapiens, UniProt Q06187)	7.47

Item C=CC(=O)Nc1cc(Nc2cc(-c3cccc(NC(=O)c4ccc(N(C)C)cc4)c3C)cn(C)c2=O)ccc1C(=O)N1CCC(O)CC1 : provide pIC50
6.73

Item C=CC(=O)Nc1cc(Nc2cc(-c3cccc(NC(=O)c4ccc(C(C)(C)C)cc4)c3C)cn(C)c2=O)ccc1C(=O)N1CCN(C(=O)OC(C)(C)C)CC1 : provide pIC50
7.17

Item C=CC(=O)Nc1cc(Nc2cc(-c3cccc(NC(=O)c4cccc(OC)c4)c3C)cn(C)c2=O)ccc1C(=O)N1CCOCC1 : provide pIC50
5.92

Item C=CC(=O)Nc1cc(Nc2cc(-c3cccc(NC(=O)c4ccc(N(C)C)cc4)c3C)cn(C)c2=O)ccc1C(=O)N1CCOCC1 : provide pIC50
8.24

---

The entries below come with measured IC50 values attached.
target: Tyrosine-protein kinase BTK (Homo sapiens); assay: Inhibition of full length recombinant human N-terminal His tagged […] expressed in baculovirus infected Sf9 insect cells using poly (Glu,Tyr)4:1 as substrate pretreated for 60 mins followed by substrate addition after 1 hr by ADP-Glo luminescence assay
Number in µM, nothing else.

compound	assay-target	test-value
C=CC(=O)Nc1cc(Nc2cc(-c3cccc(NC(=O)c4ccc(OC)cc4)c3C)cn(C)c2=O)ccc1C(=O)N1CCOCC1	Tyrosine-protein kinase BTK (Homo sapiens)	2.61
C=CC(=O)NC1CCCC(Nc2cc(-c3cccc(NC(=O)c4ccc(N(C)C)cc4)c3C)cn(C)c2=O)C1 (stereo not drawn)	Tyrosine-protein kinase BTK (Homo sapiens)	2.95

Could you now consider this next compound?
Item C=CC(=O)Nc1cc(Nc2cc(-c3cccc(NC(=O)c4ccc(N5CCOCC5)cc4)c3C)cn(C)c2=O)ccc1C(=O)N1CCOCC1 : provide IC50
0.273

---

test system: U-937; test: Growth inhibition of human U937 cells; assay type: functional; details: Homo sapiens, U-937
observable: GI50 (nM)
Number in nM, nothing else.

These recorded examples may help you get a feel for the data.
line-notation	GI50, nM
C=CC(=O)Nc1cc(Nc2cc(-c3cccc(NC(=O)c4cc5c(s4)CCCC5)c3C)cn(C)c2=O)ccc1C(=O)N1CCOCC1	1600
C=CC(=O)Nc1cc(Nc2cc(-c3cccc(NC(=O)c4ccc(C(C)(C)C)cc4)c3C)cn(C)c2=O)ccc1C(=O)N1CCOCC1	4800

Could you now consider this next compound?
Item C=CC(=O)Nc1cc(Nc2cc(-c3cccc(NC(=O)c4ccc(N(C)C)cc4)c3C)cn(C)c2=O)ccc1C(=O)N1CCOCC1 : provide GI50
2600

---

target: Tyrosine-protein kinase BTK (Homo sapiens, UniProt Q06187); experiment: Inhibition of BTK auto-phosphorylation at Y223 in human U2932 cells measured after 4 hrs by chemiluminescent assay
observable: EC50

Param request: EC50 | system Tyrosine-protein kinase BTK (Homo sapiens, UniProt Q06187) | item C=CC(=O)Nc1cc(Nc2cc(-c3cccc(NC(=O)c4ccc(C(C)(C)C)cc4)c3C)cn(C)c2=O)ccc1C(=O)N1CCOCC1
< 30 nM
